# Experimental target: PgaCDm (PgaC V227L PgaD N75D/K76E) (Escherichia coli, UniProt P75905, V227L)
# Sequence (P75905 1-441 V227L): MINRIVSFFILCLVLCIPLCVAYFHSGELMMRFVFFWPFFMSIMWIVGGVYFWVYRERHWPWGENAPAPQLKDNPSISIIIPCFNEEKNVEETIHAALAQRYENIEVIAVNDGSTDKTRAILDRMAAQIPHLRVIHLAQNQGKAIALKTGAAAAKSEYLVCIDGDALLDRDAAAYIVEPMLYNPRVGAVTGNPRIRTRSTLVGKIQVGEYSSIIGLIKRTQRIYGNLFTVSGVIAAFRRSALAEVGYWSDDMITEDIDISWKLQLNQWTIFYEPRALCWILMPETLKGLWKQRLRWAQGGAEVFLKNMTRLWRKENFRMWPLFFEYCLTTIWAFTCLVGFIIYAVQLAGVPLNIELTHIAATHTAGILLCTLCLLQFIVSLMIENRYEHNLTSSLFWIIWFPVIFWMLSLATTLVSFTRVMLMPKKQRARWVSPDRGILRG
# Sequence (P69432 1-137 N75D/K76E partner): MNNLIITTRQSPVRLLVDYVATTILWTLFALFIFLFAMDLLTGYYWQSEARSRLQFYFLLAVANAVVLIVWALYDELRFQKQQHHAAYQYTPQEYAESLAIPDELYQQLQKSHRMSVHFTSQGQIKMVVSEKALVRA
# Assay overview: WGA-HRP dot blot of PNAG, densitometry
# IC50 per entry

| Compound | Prefix operator | IC50 (µM) |
| --- | --- | --- |
| CC(=O)N[C@H]1[C@@H](OP(=O)(O)OP(=O)(O)OC[C@H]2O[C@@H](n3ccc(=O)[nH]c3=O)[C@H](O)[C@@H]2O)O[C@H](CN)[C@@H](O)[C@@H]1O [2-NH2, 6-amino derivative] | = | 480 |
| CC(=O)N[C@H]1[C@@H](OP(=O)(O)OP(=O)(O)OC[C@H]2O[C@@H](n3ccc(=O)[nH]c3=O)[C@H](O)[C@@H]2O)O[C@H](CF)[C@@H](O)[C@@H]1O [2-F, UDP-6-fluoroGlcNAc] | = | 150 |
| O=c1ccn([C@@H]2O[C@H](COP(=O)(O)OP(=O)(O)O)[C@@H](O)[C@H]2O)c(=O)[nH]1 [UDP] | = | 2700 |
| CC(=O)N[C@H]1[C@@H](OP(=O)(O)OP(=O)(O)OC[C@H]2O[C@@H](n3ccc(=O)[nH]c3=O)[C@H](O)[C@@H]2O)O[C@H](CS)[C@@H](O)[C@@H]1O [2-SH, UDP-6-thioGlcNAc] | = | 60 |
| CC(=O)N[C@H]1[C@@H](OP(=O)(O)OP(=O)(O)OC[C@H]2O[C@@H](n3ccc(=O)[nH]c3=O)[C@H](O)[C@@H]2O)O[C@H](CN=[N+]=[N-])[C@@H](O)[C@@H]1O [2-N3, 6-azido analogue] | > | 10000 |
| CC(=O)N[C@H]1[C@@H](OP(=O)(O)OP(=O)(O)OC[C@H]2O[C@@H](n3ccc(=O)[nH]c3=O)[C@H](O)[C@@H]2O)O[C@H](C)[C@@H](O)[C@@H]1O [2-H, UDP-6-deoxyGlcNAc] | = | 30 |
